- Test system: SiHa
- assay summary: MTT cell viability / cisplatin IC50 determination
- Type: cell-based
- measurement conditions: Kpnβ1 knock-down (si-Kpnβ1) cells
measure name: pIC50
Bear in mind: pIC50 is minus log10 of a mol/L concentration; give just that figure.

Quick note, pIC50 for N.N.[Cl][Pt][Cl] [cisplatin, reference compound] landed at 4.71

====

- System: CaSki
- assay summary: MTT cell viability / cisplatin IC50 determination
- Format: cell-based
- measurement conditions: 48-h treatment, no INI-43 pre-treatment
measure name: IC50 (µM)
Lab book: enter the figure in µM, no units written.

// field: IC50; key: N.N.[Cl][Pt][Cl] [cisplatin, reference compound] ; value = 18.1
